Attribution: PubChem BioAssay AID2060613

# System: 233499-124-R-J3-PDC complex spheroid viability;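 also: spheroids exposed to the drug combinations for seven days; percent viability relative to DMSO vehicle control wells taken as 100%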
# experimental-protocol: Anticancer human tumor 233499-124-R-J3-PDC patient-derived colon adenocarcinoma cell line growth inhibition [CLK]
# condition-set: second compound 0.0316 µM; first compound 3.16 µM; active compounds read low
List of viability, T/C values.
Number in %, nothing else.

Here is how some compounds turned out for viability, T/C.
- COc1ccc([C@@H](O)c2cc(-c3ncnc4cc(N5CCOCC5)ccc34)c(F)cc2Cl)nn1 + CN1CCN(c2cc(C(=O)Nc3cc4cc(-c5cnn(C)c5)ccc4cn3)ccn2)CC1: 83
- CC(Nc1ccc2c(c1)OCCn1cc(N3C(=O)OCC3C(F)F)nc1-2)C(N)=O (stereo unspecified) + CNC(=O)c1ccc(Nc2nc(OC3CCCC3)c3c(-c4ccc5nc(C)oc5c4)c[nH]c3n2)c(OC)c1: 65.5
- C=C(F)C(=O)N1CCN(c2nc(OCC3CCCN3C)nc3c2CCN(c2cccc4cccc(Cl)c24)C3)CC1CC#N (stereo unspecified) + CN1CCN(c2cc(C(=O)Nc3cc4cc(-c5cnn(C)c5)ccc4cn3)ccn2)CC1: 94.1
- CCCS(=O)(=O)Nc1ccc(F)c(C(=O)c2c[nH]c3ncc(-c4ccc(Cl)cc4)cc23)c1F + CN1CCN(c2cc(C(=O)Nc3cc4cc(-c5cnn(C)c5)ccc4cn3)ccn2)CC1: 97.2
- COC1C=CCC(C)C(C)S(=O)(=O)NC(=O)c2ccc3c(c2)N(CC2CCC21)CC1(CCCc2cc(Cl)ccc21)CO3 (stereo unspecified) + CN1CCN(c2cc(C(=O)Nc3cc4cc(-c5cnn(C)c5)ccc4cn3)ccn2)CC1: 60.4
- CC1(C)CCC(CN2CCN(c3ccc(C(=O)NS(=O)(=O)c4ccc(NCC5CCOCC5)c([N+](=O)[O-])c4)c(Oc4cnc5[nH]ccc5c4)c3)CC2)=C(c2ccc(Cl)cc2)C1 + CN1CCN(c2cc(C(=O)Nc3cc4cc(-c5cnn(C)c5)ccc4cn3)ccn2)CC1: 113

What does the data say about its viability, T/C? Entry: CC1COCCN1c1cc(C2(S(C)(=N)=O)CC2)nc(-c2ccnc3[nH]ccc23)n1 (stereo unspecified) + CNC(=O)c1ccc(Nc2nc(OC3CCCC3)c3c(-c4ccc5nc(C)oc5c4)c[nH]c3n2)c(OC)c1
89.7

Param item: COC1C=CCC(C)C(C)S(=O)(=O)NC(=O)c2ccc3c(c2)N(CC2CCC21)CC1(CCCc2cc(Cl)ccc21)CO3 (stereo unspecified) + CNC(=O)c1ccc(Nc2nc(OC3CCCC3)c3c(-c4ccc5nc(C)oc5c4)c[nH]c3n2)c(OC)c1
71.2

Param item: Nc1ccccc1NC(=O)c1ccc(CNC(=O)OCc2cccnc2)cc1 + CN1CCN(c2cc(C(=O)Nc3cc4cc(-c5cnn(C)c5)ccc4cn3)ccn2)CC1
13.5
